Each recorded value in this set is attributed to patent US10405547B2.

- System: foxtail, giant (Setaria faberii)
- assay_overview: Test A postemergence, giant foxtail
- Type: in vivo
- stated_conditions: 500 g ai/ha, visual injury, 0 to 100 scale (0 no effect, 100 complete control), approximately 10 days
Plant response rating, Foxtail, Giant values by entry
attribute_measured: Plant response rating, Foxtail, Giant

> print(dat)
                                   compound                     attribute.measured  result
1  O=C1NCC(c2cccc(OCC3OCCO3)c2)C1C(=O)Nc1ccccc1F (centres unmarked) [Compound 8]  Plant response rating, Foxtail, Giant      70
2  O=C1NCC(c2cccc(Cn3cccn3)c2)C1C(=O)Nc1ccccc1F (centres unmarked) [Compound 27]  Plant response rating, Foxtail, Giant      50
3  CN(C)N=Cc1cccc(C2CN(C)C(=O)C2C(=O)Nc2ccccc2F)c1 (centres unmarked) [Compound 54]  Plant response rating, Foxtail, Giant      20
4  O=C1NCC(c2cccc(Cn3cncn3)c2)C1C(=O)Nc1cccc(F)c1F (centres unmarked) [Compound 32]  Plant response rating, Foxtail, Giant      20
5  O=C1NCC(c2cccc(OC(F)(F)C(F)OC(F)(F)F)c2)C1C(=O)Nc1ccccc1F (centres unmarked) [Compound 40]  Plant response rating, Foxtail, Giant      60
6  O=C1NCC(c2cccc(Oc3ccc(C(F)(F)F)cn3)c2)C1C(=O)Nc1ccccc1F (single isomer, unassigned) [Compound 62]  Plant response rating, Foxtail, Giant      90
7  CN1CC(c2cccc(OC(F)(F)C(F)OC(F)(F)F)c2)C(C(=O)Nc2cccc(F)c2F)C1=O (centres unmarked) [Compound 48]  Plant response rating, Foxtail, Giant      80
8  O=C1NCC(c2cccc(COc3ccccc3)c2)C1C(=O)Nc1ccc(F)c(F)c1F (centres unmarked) [Compound 17]  Plant response rating, Foxtail, Giant      40

---

- System: pigweed (Amaranthus retroflexus)
- assay_overview: Test A preemergence, pigweed
- Type: in vivo
- stated_conditions: 31 g ai/ha, 0 to 100 scale (0 no effect, 100 complete control)
attribute_measured: Plant response rating, Pigweed

> print(dat)
                                   compound  result
1  CN1CC(c2cccc(Oc3ncc(F)cc3F)c2)C(C(=O)Nc2cccc(F)c2F)C1=O (single isomer, unassigned) [Compound 73]       0
2  CN1CC(c2cccc(Oc3ccc(F)cn3)c2)C(C(=O)Nc2cccc(C#N)c2F)C1=O (single isomer, unassigned) [Compound 88]       0
3  CN1C[C@H](c2cccc(Oc3ccc(F)cn3)c2)[C@@H](C(=O)Nc2ccc(F)c(F)c2F)C1=O [Compound 87]      70
4  CN1CC(c2cccc(Oc3ccc(F)cn3)c2)C(C(=O)Nc2cccc(F)c2C#N)C1=O (single isomer, unassigned) [Compound 89]       0
5  O=C1NCC(c2cccc(Oc3ncc(F)cc3F)c2)C1C(=O)Nc1cccc(F)c1F (single isomer, unassigned) [Compound 71]      20
6  CN1CC(c2cccc(Oc3ncc(F)cc3F)c2)C(C(=O)Nc2ccccc2F)C1=O (single isomer, unassigned) [Compound 72]       0
7  O=C1NCC(c2cccc(CN3CCOCC3)c2)C1C(=O)Nc1cccc(F)c1F (single isomer, unassigned) [Compound 90]       0
8  CN1CC(c2cccc(Oc3ncc(F)cc3F)c2)C(C(=O)Nc2ccc(F)c(F)c2F)C1=O (single isomer, unassigned) [Compound 74]       0

---

- System: ragweed (common ragweed, Ambrosia elatior)
- assay_overview: Test A preemergence, ragweed
- Format: in vivo
- stated_conditions: 500 g ai/ha, 0 to 100 scale (0 no effect, 100 complete control)
In this section, each of the compounds is paired with its reported Plant response rating, Ragweed.
attribute_measured: Plant response rating, Ragweed

> print(dat)
                                   compound  result
1  CN(C)N=Cc1cccc(C2CN(C)C(=O)C2C(=O)Nc2ccccc2F)c1 (stereo not shown)       0
2  CN1CC(c2cccc(Sc3ccccc3)c2)C(C(=O)Nc2cccc(F)c2F)C1=O (single isomer, unassigned)       0
3  CN1CC(c2cccc(Oc3ccc(F)cn3)c2)C(C(=O)Nc2ccccc2F)C1=O (single isomer, unassigned)      50
4  CC1(COc2cccc(C3CNC(=O)C3C(=O)Nc3ccccc3Cl)c2)COC1 (stereo not shown)       0

---

- Test system: barnyardgrass (Echinochloa crus-galli)
- assay_overview: Test A preemergence, barnyardgrass
- Assay type: in vivo
- stated_conditions: 500 g ai/ha, 0 to 100 scale (0 no effect, 100 complete control)
Classification field: label 1 = Plant response rating, Barnyardgrass at or over 70; label 0 = Plant response rating, Barnyardgrass under 70.

> print(dat)
                                    molecule  class.name
 1  O=C1NCC(c2cccc(OCc3ccccc3)c2)C1C(=O)Nc1ccc(F)cc1F (stereo not shown)     label 0
 2  O=C1NCC(c2cccc(COc3ccccc3)c2)C1C(=O)Nc1cccc(F)c1F (stereo not shown)     label 0
 3  O=C1NCC(c2cccc(OCC3OCCO3)c2)C1C(=O)Nc1ccccc1C(F)(F)F (stereo not shown)     label 0
 4  O=C1NCC(c2cccc(OCC3CC3)c2)C1C(=O)Nc1ccccc1F (stereo not shown)     label 1
 5  CN1CC(c2cccc(Oc3ccc(F)cn3)c2)C(C(=O)Nc2cccc(F)c2F)C1=O (single isomer, unassigned)     label 1
 6  CON=Cc1cccc(C2CN(C)C(=O)C2C(=O)Nc2ccccc2F)c1 (stereo not shown)     label 1
 7  O=C1NCC(c2cccc(Oc3ccc(F)cn3)c2)C1C(=O)Nc1cccc(F)c1F (single isomer, unassigned)     label 1
 8  C[Si](C)(C)C#Cc1cccc(C2CNC(=O)C2C(=O)Nc2cccc(F)c2F)c1 (stereo not shown)     label 1
 9  O=C1NCC(c2cccc(Cn3cccn3)c2)C1C(=O)Nc1ccccc1Cl (stereo not shown)     label 0
10  O=C1NCC(c2cccc(OCc3ccccc3)c2)C1C(=O)Nc1ccc(F)c(F)c1F (stereo not shown)     label 0
11  CN1CC(c2cccc(Oc3ccc(F)cc3)c2)C(C(=O)Nc2cccc(F)c2F)C1=O (single isomer, unassigned)     label 1
12  O=C1NCC(c2ccccc2Cn2ccc(C(F)(F)F)n2)C1C(=O)Nc1ccc(F)c(F)c1F (stereo not shown)     label 1
13  O=C1NCC(c2cccc(Cn3cccn3)c2)C1C(=O)Nc1cccc(F)c1F (stereo not shown)     label 0
14  CN1CC(c2cccc(Oc3ccc(C(F)(F)F)cn3)c2)C(C(=O)Nc2cccc(F)c2F)C1=O (single isomer, unassigned)     label 1

---

- System: sedge, umbrella (small-flower umbrella sedge, Cyperus difformis)
- assay_overview: Test B flooded paddy test, umbrella sedge
- Type: in vivo
- stated_conditions: 250 g ai/ha, applied to paddy water, visual rating after 13 to 15 days, scale 0 (no effect) to 100 (complete control)
attribute_measured: Plant response rating, Sedge, Umbrella (Flood)

> print(dat)
                                   molecule  result
1  O=C1NCC(c2cccc(OCc3ccco3)c2)C1C(=O)Nc1ccccc1C(F)(F)F (centres unmarked) [Compound 2]       0
2  O=C1NCC(c2cccc(OCc3ccco3)c2)C1C(=O)Nc1ccccc1Cl (centres unmarked) [Compound 1]      30
3  O=C1NCC(c2cccc(OCC3CC3)c2)C1C(=O)Nc1cccc(F)c1F (centres unmarked) [Compound 12]       0
4  CON=Cc1cccc(C2CN(C)C(=O)C2C(=O)Nc2ccccc2F)c1 (centres unmarked) [Compound 53]       0
5  CC1(COc2cccc(C3CNC(=O)C3C(=O)Nc3ccccc3Cl)c2)COC1 (centres unmarked) [Compound 16]      30
6  O=C1NCC(c2ccccc2Cn2ccc(C(F)(F)F)n2)C1C(=O)Nc1cccc(F)c1F (centres unmarked) [Compound 57]       0
7  O=C1NCC(c2cccc(Oc3ccc(C(F)(F)F)cn3)c2)C1C(=O)Nc1cccc(F)c1F (single isomer, unassigned) [Compound 47]       0
8  O=C1NCC(c2ccccc2Cn2ccc(C(F)(F)F)n2)C1C(=O)Nc1ccc(F)c(F)c1F (centres unmarked) [Compound 58]       0

---

Plant response rating, Wheat for assorted molecules
- System: wheat (Triticum aestivum)
- assay_overview: Test A postemergence, wheat
- Format: in vivo
- stated_conditions: 500 g ai/ha, visual injury, 0 to 100 scale (0 no effect, 100 complete control), approximately 10 days
attribute_measured: Plant response rating, Wheat

> print(dat)
                                   molecule            attribute.measured  result
1  O=C1NCC(c2cccc(Oc3ccc(F)cn3)c2)C1C(=O)Nc1cccc(F)c1F (single isomer, unassigned) [Compound 52]  Plant response rating, Wheat      40
2  O=C1NCC(c2cccc(Oc3ccc(F)cn3)c2)C1C(=O)Nc1ccccc1F (single isomer, unassigned) [Compound 49]  Plant response rating, Wheat      40
3  O=C1NCC(c2cccc(Cn3ccc(C(F)(F)F)n3)c2)C1C(=O)Nc1cccc(F)c1F (stereo not shown) [Compound 25]  Plant response rating, Wheat       0
4  O=C1NCC(c2cccc(Cn3cccn3)c2)C1C(=O)Nc1ccccc1Cl (stereo not shown) [Compound 29]  Plant response rating, Wheat       0
5  O=C1NCC(c2cccc(Cn3cccn3)c2)C1C(=O)Nc1ccc(F)c(F)c1F (stereo not shown) [Compound 26]  Plant response rating, Wheat       0
6  O=C1NCC(c2cccc(OCC3OCCO3)c2)C1C(=O)Nc1ccccc1F (stereo not shown) [Compound 8]  Plant response rating, Wheat       0
7  CN1CC(c2cccc(Sc3ccccc3)c2)C(C(=O)Nc2ccccc2F)C1=O (single isomer, unassigned) [Compound 50]  Plant response rating, Wheat       0
